- Tested on: Lactobacillus gasseri
- test details: growth AUC relative to DMSO control (median of replicates) (fraction); higher = more growth (less inhibition), active = hit call of the paper
- protocol conditions: 20 µM; 24 h
Returns true (1) if the recorded growth AUC is greater than or equal to 1, and false (0) otherwise.

compound: COc1cc(Cl)c(OC)cc1Cl
assigned class: false (0)
//
compound: CCN(CC)C(=O)/C(Cl)=C(/C)OP(=O)(OC)OC
assigned class: false (0)
//
compound: CCC(CC)Nc1c([N+](=O)[O-])cc(C)c(C)c1[N+](=O)[O-]
assigned class: false (0)
//
compound: COP(=S)(OC)SCN1C(=O)c2ccccc2C1=O
assigned class: true (1)
//
compound: CCCSP(=O)(OCC)SCCC
assigned class: false (0)
//
compound: O=C(O)C(F)(F)C(F)(F)C(F)(F)C(F)(F)C(F)(F)C(F)(F)F
assigned class: true (1)
//
compound: COP(=S)(OC)Oc1ccc(Sc2ccc(OP(=S)(OC)OC)cc2)cc1
assigned class: true (1)
//
compound: CNC(=O)O/N=C(\C)C(C)S(C)=O (centres undefined)
assigned class: false (0)
//
compound: Cc1ccc(N=CN(C)C=Nc2ccc(C)cc2C)c(C)c1
assigned class: false (0)
//
compound: CC#Cc1cc(C)nc(Nc2ccccc2)n1
assigned class: false (0)
//
compound: Nc1cnn(-c2ccccc2)c(=O)c1Cl
assigned class: true (1)

----------
Property: growth AUC; scope: individual compounds
- System: Bifidobacterium longum subsp. longum
- test details: growth AUC relative to DMSO control (median of replicates) (fraction); higher = more growth (less inhibition), active = hit call of the paper
- protocol conditions: 20 µM; 24 h
quantity name: growth AUC

compound: CC(C)C1(C)N=C(c2ncccc2C(=O)O)NC1=O (centres undefined)
quantity name: growth AUC
readout number: 1

compound: O=C(OC1CCCCC1)c1ccccc1C(=O)OC1CCCCC1
quantity name: growth AUC
readout number: 1

compound: CCC(C)c1cc([N+](=O)[O-])cc([N+](=O)[O-])c1O (centres undefined)
quantity name: growth AUC
readout number: 0.981

compound: O=C(O)c1ccc(=O)[nH]c1
quantity name: growth AUC
readout number: 1

----------
- Test system: Lactobacillus paracasei
- test details: growth AUC relative to DMSO control (median of replicates) (fraction); higher = more growth (less inhibition), active = hit call of the paper
- protocol conditions: 20 µM; 24 h

molecular string: CCNc1nc(NC(C)C)nc(SC)n1
growth AUC: 0.992

molecular string: O=C(Nc1ccccc1)N(Cc1ccc(Cl)cc1)C1CCCC1
growth AUC: 1.06

molecular string: Fc1ccc(Oc2ccnc3cc(Cl)cc(Cl)c23)cc1
growth AUC: 0.672

molecular string: CC(C)[C@H](C(=O)O[C@H](C#N)c1cccc(Oc2ccccc2)c1)c1ccc(Cl)cc1
growth AUC: 1.01

----------
- Test system: Bifidobacterium longum subsp. longum
- test details: growth AUC relative to DMSO control (median of replicates) (fraction); higher = more growth (less inhibition), active = hit call of the paper
- protocol conditions: 20 µM; 24 h
# label = 1 if growth AUC >= 1 else -1

molecular string: c1cc2c3c(cccc3c1)CC2
study system: Bifidobacterium longum subsp. longum
assigned class: -1
--
molecular string: Clc1ccc(C(c2ccc(Cl)cc2)C(Cl)(Cl)Cl)cc1
study system: Bifidobacterium longum subsp. longum
assigned class: -1
--
molecular string: CON(C)C(=O)Nc1ccc(Br)cc1
study system: Bifidobacterium longum subsp. longum
assigned class: 1
--
molecular string: CCCCCCCC(=O)Oc1c(I)cc(C#N)cc1I
study system: Bifidobacterium longum subsp. longum
assigned class: 1

----------
- Test system: Bacteroides uniformis
- test details: growth AUC relative to DMSO control (median of replicates) (fraction); higher = more growth (less inhibition), active = hit call of the paper
- protocol conditions: 20 µM; 24 h
growth AUC reference

compound: O=[N+]([O-])c1ccccc1
growth AUC: 1
--
compound: O=C(NC(=O)c1c(F)cccc1F)Nc1ccc(Oc2ccc(C(F)(F)F)cc2Cl)cc1F
growth AUC: 0.996
--
compound: Cc1cc(C2CC2)nc(Nc2ccccc2)n1
growth AUC: 0.981
--
compound: CCc1nn(C)c(C(=O)NCc2ccc(C(C)(C)C)cc2)c1Cl
growth AUC: 0.982
--
compound: ClC1=C(Cl)C2(Cl)C(CBr)CC1(Cl)C2(Cl)Cl (configuration not stated)
growth AUC: 0.982
--
compound: COc1ccccc1N
growth AUC: 1.02
--
compound: CCOP(=S)(OCC)Oc1cnccn1
growth AUC: 0.982
--
compound: O=C(NC(=O)c1c(F)cccc1F)Nc1ccc(Cl)c(Oc2ncc(C(F)(F)F)cc2Cl)c1
growth AUC: 1.02
--
compound: ClC(Cl)=C(c1ccc(Cl)cc1)c1ccc(Cl)cc1
growth AUC: 1.01
--
compound: CCC(C)c1ccccc1OC(=O)NC (configuration not stated)
growth AUC: 0.978
--
compound: CC1(C)C(C(=O)OC(C#N)c2cccc(Oc3ccccc3)c2)C1(C)C (configuration not stated)
growth AUC: 1.01
--
compound: NCCO.O=C(O)c1nc(Cl)ccc1Cl
growth AUC: 1
--
compound: COc1cc(OC)nc(Sc2cccc(Cl)c2C(=O)O)n1
growth AUC: 0.986
--
compound: CS(=O)(=O)c1ccc(C(=O)C2C(=O)CCCC2=O)c(Cl)c1
growth AUC: 1
--
compound: CSc1nc(NC(C)C)nc(NC(C)C)n1
growth AUC: 0.983
--
compound: O=[N+]([O-])c1c(Cl)c(Cl)cc(Cl)c1Cl
growth AUC: 0.992
--
compound: COP(=S)(OC)Oc1ccc(SC)c(C)c1
growth AUC: 0.977
--
compound: CC(C)Nc1nc(Cl)nc(NC(C)C)n1
growth AUC: 1.02
--
compound: CNC(=O)/C(=N/OC)c1ccccc1Oc1ccccc1
growth AUC: 0.997
--
compound: CNC(=O)O/N=C(\C)SC
growth AUC: 0.988
--
compound: CCOP(=S)(OCC)Oc1nc(Cl)n(C(C)C)n1
growth AUC: 0.972
--
compound: O=C(Nc1ccc(F)cc1F)c1cccnc1Oc1cccc(C(F)(F)F)c1
growth AUC: 1.01
--
compound: COP(=S)(OC)Oc1cc(Cl)c(Br)cc1Cl
growth AUC: 1.01
--
compound: Cc1c(F)c(F)c(COC(=O)[C@@H]2[C@H](/C=C(\Cl)C(F)(F)F)C2(C)C)c(F)c1F (mixture of isomers)
growth AUC: 1.01
--
compound: Nc1ccc(Cl)cc1Cl
growth AUC: 0.993
--
compound: Cc1cc(Cl)ccc1OC(C)C(=O)O (configuration not stated)
growth AUC: 1
--
compound: CCOP(=S)(OCC)SCSCC
growth AUC: 0.986

----------
- Test system: Streptococcus salivarius
- test details: growth AUC relative to DMSO control (median of replicates) (fraction); higher = more growth (less inhibition), active = hit call of the paper
- protocol conditions: 20 µM; 24 h

molecular string: N#Cc1nn(-c2c(Cl)cc(C(F)(F)F)cc2Cl)c(N)c1S(=O)(=O)C(F)(F)F
growth AUC: 0.548
--
molecular string: COC(=O)c1ccccc1S(=O)(=O)NC(=O)Nc1nc(C)cc(C)n1
growth AUC: 0.982
--
molecular string: Clc1ccc(Cl)c(Cl)c1Cl
growth AUC: 1.04
--
molecular string: COP(=S)(OC)Oc1nc(Cl)c(Cl)cc1Cl
growth AUC: 1.02
--
molecular string: CO/N=C(/C(=O)OC)c1ccccc1CO/N=C(\C)c1cccc(C(F)(F)F)c1
growth AUC: 0.998
--
molecular string: Fc1ccc(Oc2ccnc3cc(Cl)cc(Cl)c23)cc1
growth AUC: 0.956
--
molecular string: CNC(=O)O/N=C(\SC)C(=O)N(C)C
growth AUC: 1.02
--
molecular string: COC(=O)c1sccc1S(=O)(=O)NC(=O)Nc1nc(C)nc(OC)n1
growth AUC: 0.859
--
molecular string: O=C1C=C(N(Cc2ccc(Cl)nc2)CC(F)F)CO1
growth AUC: 0.979
--
molecular string: COCc1c(F)c(F)c(COC(=O)[C@@H]2[C@@H](C=C(Cl)Cl)C2(C)C)c(F)c1F
growth AUC: 0.986

----------
- Tested on: Parabacteroides distasonis
- test details: growth AUC relative to DMSO control (median of replicates) (fraction); higher = more growth (less inhibition), active = hit call of the paper
- protocol conditions: 20 µM; 24 h
Label true when growth AUC >= 1; otherwise false.

molecular string: CCOC(=O)c1ccccc1S(=O)(=O)NC(=O)Nc1nc(Cl)cc(OC)n1
assigned class: true
//
molecular string: CCCN(CCC)c1c([N+](=O)[O-])cc(C(F)(F)F)cc1[N+](=O)[O-]
assigned class: true
//
molecular string: C[N+](C)(C)CCCl.[Cl-]
assigned class: true
//
molecular string: CO/N=C(/C(=O)OC)c1ccccc1COc1ccccc1C
assigned class: false
//
molecular string: COc1cc(OC)n2nc(S(=O)(=O)Nc3c(Cl)ccc(C)c3Cl)nc2n1
assigned class: true
//
molecular string: CCNc1nc(Cl)nc(NC(C)C)n1
assigned class: true
//
molecular string: Nc1c(Cl)c(Cl)c(Cl)c(Cl)c1Cl
assigned class: true
//
molecular string: O=S(=O)(Oc1ccc(Cl)cc1)c1ccc(Cl)cc1
assigned class: false
